pIC50 values for UniProt P21396, compiled from several publications.
pIC50: −log10 of the molar value.
OBSERVED PROPERTY: pIC50

[in] # input molecule: COc1ccc(C2CC(c3ccccc3)=NN2c2nc3ccccc3c(=O)n2C)cc1 (stereo unspecified) ; wanted: its pIC50
[out] 5.35

[in] Could you share which pIC50 value was measured for COc1cccc(-c2cc3c(nn2)-c2ccccc2C3=O)c1 ?
[out] 4.30

[in] For the molecule Nc1ccc(-c2cc3c(nn2)-c2ccccc2C3=O)cc1 , what pIC50 is on record?
[out] 4.43

a = Cc1ccc(NC(=S)N2N=C(c3ccccc3O)CC2c2ccc(O)cc2)cc1 (stereo unspecified)
b = O=C1c2ccccc2-c2nnc(-c3ccc(F)c(F)c3)cc21
c = CC(=O)Nc1cccc(COc2ccc3c(C)c(C)c(=O)oc3c2)c1
d = Cc1c(C)c2ccc(OCc3ccccn3)cc2oc1=O
e = NC(=O)CNCc1ccc(OCc2ccc([N+](=O)[O-])cc2)cc1
[in] Rank the 5 molecules: largest pIC50 first, smallest last. # format: label list in the order the request specifies
[out] b, d, c, e, a

---

# ASSAYED SYSTEM: Amine oxidase [flavin-containing] A (Rattus norvegicus)
# Sequence (P21396 whole entry): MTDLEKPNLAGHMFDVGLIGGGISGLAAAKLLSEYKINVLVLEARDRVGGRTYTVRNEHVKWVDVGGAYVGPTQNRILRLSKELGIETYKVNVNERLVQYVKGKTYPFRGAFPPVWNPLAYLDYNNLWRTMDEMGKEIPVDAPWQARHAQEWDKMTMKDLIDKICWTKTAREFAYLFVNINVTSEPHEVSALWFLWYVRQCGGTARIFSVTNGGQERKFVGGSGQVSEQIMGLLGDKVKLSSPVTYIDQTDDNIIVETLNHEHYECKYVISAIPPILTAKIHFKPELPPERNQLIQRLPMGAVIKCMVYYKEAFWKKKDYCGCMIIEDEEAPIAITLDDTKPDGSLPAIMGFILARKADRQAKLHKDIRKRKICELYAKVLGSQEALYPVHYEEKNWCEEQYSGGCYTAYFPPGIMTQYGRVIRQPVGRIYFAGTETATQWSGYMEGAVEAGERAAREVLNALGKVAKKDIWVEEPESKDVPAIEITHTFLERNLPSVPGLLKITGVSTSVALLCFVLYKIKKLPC
pIC50: −log10 of the molar value.
Here's a roundup of pIC50 values tested on Amine oxidase [flavin-containing] A (Rattus norvegicus), taken from various published works.
OBSERVED PROPERTY: pIC50

The following compounds have reported results that may help.
[in] What value of pIC50 has been reported for the following compound? COc1ccc(NC(=S)N2N=C(c3ccccc3O)CC2c2ccc(O)c(OC)c2)cc1 (configuration not stated)
[out] 4.31

[in] Can you look up the measured pIC50 of CCOc1ccc(/C=C/C(=N/Nc2nc3ccccc3c(=O)n2C)c2ccccc2)cc1 for me?
[out] 4.54

[in] Item CNC(=O)Cc1coc2cc(OCc3cccc(Cl)c3)ccc12 has what recorded pIC50?
[out] 5.51

[in] What value of measured pIC50 is listed for O=c1cc(Cl)c2ccc(OCc3cccc(Cl)c3)cc2o1 ?
[out] 5.05

[in] Report pIC50 for Cc1ccccc1NC(=S)N1N=C(c2ccccc2O)CC1c1ccccc1O (configuration not stated) please.
[out] 3.77

[in] Tell me the measured pIC50 of Cc1c(C)c2ccc(OC(C)c3ccccc3)cc2oc1=O (configuration not stated) , please.
[out] 5.45

[in] If you can, please state the reported pIC50 value of COc1ccccc1C1CC(c2ccccc2O)=NN1C(=S)Nc1ccccc1 (configuration not stated) .
[out] 4.13

a = O=C(NCCBr)c1ccc(Cl)cc1
b = O=C(O)CCc1cc2c(nn1)-c1ccccc1C2=O
[in] Sorting ascending by pIC50, which comes first: a or b ? Returns: label corresponding to the selected item.
[out] b
